- Test system: A. thaliana seedlings
- PROCEDURE_DETAILS: Seedling growth inhibition (fresh weight)
- Assay type: in vivo, Arabidopsis thaliana
- CONDITION_LABEL: Col-0, 1 μM, replicate 5; mock mean = 1
- Experimental: Four-day-old seedlings growing on MS plates were transferred individually into separate wells of transparent 48-well tissue culture plates (Greiner Bio-One) containing 500 μL of liquid MS media with/without elicitor addition. The plates were then transferred back to the growth conditions for an additional 10 days before seedlings were blot-dried and weighed.
No end group written: not given here.
Each entry below carries its reported Seedling fresh weight (Fig3C), relative to mock.
MEASURE_NAME: Seedling fresh weight (Fig3C), relative to mock

BIOSEQUENCE	NUMBER
PVRSSRSPRSPSF [SCOOP2]	0.971
RAGPSKSGQGGGR [SCOOP7]	0.1644
YLPPSKSRKGKGP [SCOOP13]	0.9892
FTGPSGSGHGGGR [SCOOP10]	0.9923
ETPPSRSRRGGGG [SCOOP1]	0.3379
GTGPSHSGHGGSS [SCOOP9]	0.4809

###

- System: A. thaliana seedlings
- PROCEDURE_DETAILS: Seedling growth inhibition (fresh weight)
- Assay type: in vivo, Arabidopsis thaliana
- CONDITION_LABEL: Col-0, 10 μM, replicate 12; mock mean = 1
No end group written: not given here.
Entries annotated with measured Seedling fresh weight (Fig3C), relative to mock
MEASURE_NAME: Seedling fresh weight (Fig3C), relative to mock

BIOSEQUENCE	NUMBER
ETPPSRSRRGGGG [SCOOP1]	0.2032
PVRSSRSPRSPSF [SCOOP2]	0.6793
YLPPSKSRKGKGP [SCOOP13]	0.04852
RAGPSKSGQGGGR [SCOOP7]	0.006065
GTGPSHSGHGGSS [SCOOP9]	0.1425
FTGPSGSGHGGGR [SCOOP10]	0.6884

###

- System: A. thaliana seedlings
- PROCEDURE_DETAILS: Seedling growth inhibition (fresh weight)
- Assay type: in vivo, Arabidopsis thaliana
- CONDITION_LABEL: Col-0, 10 μM, replicate 6; mock mean = 1
No end group written: not given here.
Catalogue of Seedling fresh weight (Fig3C), relative to mock readings, one per entry.
MEASURE_NAME: Seedling fresh weight (Fig3C), relative to mock

BIOSEQUENCE	NUMBER
RAGPSKSGQGGGR [SCOOP7]	0.009098
ETPPSRSRRGGGG [SCOOP1]	0.1729
YLPPSKSRKGKGP [SCOOP13]	0.03033
GTGPSHSGHGGSS [SCOOP9]	0.08795
PVRSSRSPRSPSF [SCOOP2]	0.5914
FTGPSGSGHGGGR [SCOOP10]	0.7187

###

- System: A. thaliana seedlings
- PROCEDURE_DETAILS: Seedling growth inhibition (fresh weight)
- Format: in vivo, Arabidopsis thaliana
- CONDITION_LABEL: Col-0, 1 μM, replicate 12; mock mean = 1
No end group written: not given here.
Record 1 whenever Seedling fresh weight (Fig3C), relative to mock is at 0.7 or higher; record 0 when lower.

BIOSEQUENCE	STUDY_TARGET	CAT
PVRSSRSPRSPSF [SCOOP2]	A. thaliana seedlings	1
YLPPSKSRKGKGP [SCOOP13]	A. thaliana seedlings	1
GTGPSHSGHGGSS [SCOOP9]	A. thaliana seedlings	1
RAGPSKSGQGGGR [SCOOP7]	A. thaliana seedlings	0
ETPPSRSRRGGGG [SCOOP1]	A. thaliana seedlings	0
FTGPSGSGHGGGR [SCOOP10]	A. thaliana seedlings	1

###

- Tested on: A. thaliana seedlings
- PROCEDURE_DETAILS: Seedling growth inhibition (fresh weight)
- Assay type: in vivo, Arabidopsis thaliana
- CONDITION_LABEL: mik2-1, 10 μM, replicate 11; mock mean = 1
No end group written: not given here.
Entries and their Seedling fresh weight (Fig3C), relative to mock
MEASURE_NAME: Seedling fresh weight (Fig3C), relative to mock

BIOSEQUENCE	NUMBER
YLPPSKSRKGKGP [SCOOP13]	0.9941
RAGPSKSGQGGGR [SCOOP7]	0.9569
FTGPSGSGHGGGR [SCOOP10]	1.031
PVRSSRSPRSPSF [SCOOP2]	1.058
GTGPSHSGHGGSS [SCOOP9]	0.9062
ETPPSRSRRGGGG [SCOOP1]	0.9569

###

- Tested on: A. thaliana seedlings
- PROCEDURE_DETAILS: Seedling growth inhibition (fresh weight)
- Format: in vivo, Arabidopsis thaliana
- CONDITION_LABEL: Col-0, 10 μM, replicate 5; mock mean = 1
- Description: Four-day-old seedlings growing on MS plates were transferred individually into separate wells of transparent 48-well tissue culture plates (Greiner Bio-One) containing 500 μL of liquid MS media with/without elicitor addition. The plates were then transferred back to the growth conditions for an additional 10 days before seedlings were blot-dried and weighed.
No end group written: not given here.
Listed here: items and their measured Seedling fresh weight (Fig3C), relative to mock.
MEASURE_NAME: Seedling fresh weight (Fig3C), relative to mock

BIOSEQUENCE	NUMBER
YLPPSKSRKGKGP [SCOOP13]	0.04246
ETPPSRSRRGGGG [SCOOP1]	0.06065
GTGPSHSGHGGSS [SCOOP9]	0.1395
FTGPSGSGHGGGR [SCOOP10]	0.5034
RAGPSKSGQGGGR [SCOOP7]	0.01213
PVRSSRSPRSPSF [SCOOP2]	0.5307

###

Quick reference: Seedling fresh weight (Fig3C), relative to mock of the listed items.
- Test system: A. thaliana seedlings
- PROCEDURE_DETAILS: Seedling growth inhibition (fresh weight)
- Type: in vivo, Arabidopsis thaliana
- CONDITION_LABEL: mik2-1, 1 μM, replicate 7; mock mean = 1
No end group written: not given here.
MEASURE_NAME: Seedling fresh weight (Fig3C), relative to mock

BIOSEQUENCE	NUMBER
ETPPSRSRRGGGG [SCOOP1]	1.049
PVRSSRSPRSPSF [SCOOP2]	0.972
FTGPSGSGHGGGR [SCOOP10]	0.9619
GTGPSHSGHGGSS [SCOOP9]	1.0157
YLPPSKSRKGKGP [SCOOP13]	1.002
RAGPSKSGQGGGR [SCOOP7]	0.9955
